System: K-562 leukemia
Assay: NCI tumour cell line growth inhibition, 48 h
Reported TGI values follow for various compounds

CCCN(CCSSCCNc1nc(N(C)O)nc(N(C)O)n1)c1nc(N(C)O)nc(N(C)O)n1
> 100 µM
Oc1ccc(C#CCOc2ccccc2)cc1CNCCN(Cc1ccccn1)Cc1ccccn1
13.8 µM
Cc1ccc(S(=O)(=O)NC(=O)NC(Cc2ccc(O)c(O)c2)C(=O)O)cc1 (stereo not given)
> 100 µM

Request the reported TGI associated with COc1cc(OC)c(C(=O)/C=C/c2cccc(OC(C)=O)c2)cc1CC=C(C)C > 50 µM

Request the reported TGI associated with CN1CCN(c2ccc(C(=O)Nc3cc(-c4cccc(NS(=O)(=O)c5ccccc5)c4)[nH]n3)cc2)CC1 19.4 µM

Request the reported TGI associated with O=C(OCCC12CC3CC(CC(C3)C1)C2)c1ccc(NCc2cc(O)ccc2O)cc1 10.6 µM

Request the reported TGI associated with CS(=O)(=O)OCCCOS(C)(=O)=O > 100 µM

Request the reported TGI associated with Cc1[nH]nc2c1N=C(c1ccccc1Cl)c1cc([N+](=O)[O-])ccc1N2 > 25 µM

Request the reported TGI associated with CC(NC(=O)C(N)CC(=O)O)NC(=O)N(C)C(C)(C)C (stereo not given) > 100 µM

Request the reported TGI associated with CCOC(=O)c1cc(C(=O)c2cc(OC)c(OC)c(OC)c2)n2ccccc12 > 100 µM
